As an illustration, consider measured pKi for molecules on Carbonic anhydrase 9 (Homo sapiens, UniProt Q16790).
The quantity pKi is defined as the negative base-10 logarithm of the molar concentration.

Consider the reported pKi for these molecules:
Identify measured pKi corresponding to CC(=O)OC[C@H]1O[C@@H](SCc2cn(-c3ccc(S(N)(=O)=O)cc3)nn2)[C@H](OC(C)=O)[C@@H](OC(C)=O)[C@@H]1OC(C)=O 8.07

Please give the documented pKi of NS(=O)(=O)c1ccc(-n2cc(C[S+]([O-])[C@@H]3O[C@H](CO)[C@@H](O)[C@H](O)[C@H]3O)nn2)cc1 (some centres undefined) 8.01

Quickly give me recorded pKi for CC(=O)OC[C@H]1O[C@@H](S(=O)(=O)Cc2cn(-c3ccc(S(N)(=O)=O)cc3)nn2)[C@H](OC(C)=O)[C@@H](OC(C)=O)[C@@H]1OC(C)=O 8.03

Lab note: next molecule to report on.
// Input: NS(=O)(=O)c1ccc(-n2cc(CS(=O)(=O)[C@@H]3O[C@H](CO)[C@@H](O)[C@H](O)[C@H]3O)nn2)cc1 . Output its pKi only. 8.02

* * *

Molecular target: Carbonic anhydrase 9 (Homo sapiens, UniProt Q16790)
Property Name: Ki (nM)
Just the number in nM, nothing appended.

For the compound NS(=O)(=O)c1ccc(-n2cc(CS[C@@H]3O[C@H](CO)[C@H](O)[C@H](O)[C@H]3O)nn2)cc1 , give its reported Ki. 6.1

Return the recorded Ki value; entry: NS(=O)(=O)c1ccc(-n2cc(C[S+]([O-])[C@@H]3O[C@H](CO)[C@H](O)[C@H](O)[C@H]3O)nn2)cc1 (stereo partly drawn) 8

Consider the record given below.
Provide only the value of recorded Ki for NS(=O)(=O)c1ccc(-n2cc(CS(=O)(=O)[C@@H]3O[C@H](CO)[C@H](O)[C@H](O)[C@H]3O)nn2)cc1 8.1
